Reported Ki values follow for various compounds
Target: recombinant Mcl-1 (residues 172-327) (Homo sapiens (Human))
Sequence (Q07820 172-327): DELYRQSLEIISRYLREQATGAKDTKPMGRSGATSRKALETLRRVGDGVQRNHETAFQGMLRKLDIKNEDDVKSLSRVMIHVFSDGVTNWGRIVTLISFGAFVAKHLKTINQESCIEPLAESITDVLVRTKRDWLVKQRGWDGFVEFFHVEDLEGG
Experiment: Fluorescence polarization anisotropy competition assay (FITC-Bak or FITC-Bim BH3 peptide) with Mcl-1
Format: binding

Cc1cc(OCCCc2c(C(=O)NCc3ccc(C(=O)O)o3)[nH]c3ccccc23)cc(C)c1Cl :: 0.051 to 0.1 µM

Request: Please tell me the measured Ki for COC(=O)CNC(=O)c1[nH]c2ccccc2c1CCCOc1cc(C)c(Cl)c(C)c1 ; system: recombinant Mcl-1 (residues 172-327) (Homo sapiens (Human)).
Response: 1 to 9.99 µM

Request: Give the observed Ki of Cc1cc(OCCCc2c3n(c4c(-c5c(C)nn(C)c5C)cc(Cl)cc24)CCCN(c2cc(C(=O)O)cc4c2ccn4C)C3=O)cc(C)c1Cl for recombinant Mcl-1 (residues 172-327) (Homo sapiens (Human)).
Response: 0.101 to 0.299 µM

Request: Jot down Ki (recombinant Mcl-1 (residues 172-327) (Homo sapiens (Human))) of Cc1cc(OCCCc2c(C(=O)NCC(=O)O)[nH]c3ccccc23)cc(C)c1Cl .
Response: 0.501 to 0.999 µM

Request: Give measured Ki for Cc1cc(OCCCc2c3n(c4c(-c5c(C)nn(C)c5C)cc(Cl)cc24)CCCN(c2cc(C(=O)O)c4ccn(C)c4c2)C3=O)cc(C)c1Cl (recombinant Mcl-1 (residues 172-327) (Homo sapiens (Human))).
Response: 0.101 to 0.299 µM
